Tested on: Escherichia coli TOP10
Method Notes: shrunken log2 fold change of peptide-encoding DNA abundance (4.5 h post-induction vs induction); higher = less antimicrobial activity (less host growth inhibition)
Conditions Used: time post-induction: 4.5 h; library: site-saturation at positions 5, 18, 19, 20
Respond with T for shrunken log2 fold change values of -0.04 and above, F for values below.

Biopolymer Sequence	Measured On	Assigned Class
RRIRARPPRLPRPRPRPCMRPRP	Escherichia coli TOP10	T

q: Check this sequence for shrunken log2 fold change at or above -0.04: `RRIRMRPPRLPRPRPRPSDSPRP`
a: T

q: Check this sequence for shrunken log2 fold change at or above -0.04: `RRIRLRPPRLPRPRPRPFMHPRP`
a: F

q: Check this sequence for shrunken log2 fold change at or above -0.04: `RRIRRRPPRLPRPRPRPHPTPRP`
a: T

q: Check this sequence for shrunken log2 fold change at or above -0.04: `RRIRERPPRLPRPRPRPGIQPRP`
a: F

q: Check this sequence for shrunken log2 fold change at or above -0.04: `RRIRIRPPRLPRPRPRPGYMPRP`
a: F

q: Check this sequence for shrunken log2 fold change at or above -0.04: `RRIRQRPPRLPRPRPRPNFGPRP`
a: F

q: Check this sequence for shrunken log2 fold change at or above -0.04: `RRIRSRPPRLPRPRPRPCRHPRP`
a: T

q: Check this sequence for shrunken log2 fold change at or above -0.04: `RRIRERPPRLPRPRPRPQAIPRP`
a: T

q: Check this sequence for shrunken log2 fold change at or above -0.04: `RRIRLRPPRLPRPRPRPNFEPRP`
a: T

---

Tested on: Escherichia coli TOP10
Method Notes: shrunken log2 fold change of peptide-encoding DNA abundance (4.5 h post-induction vs induction); higher = less antimicrobial activity (less host growth inhibition)
Conditions Used: time post-induction: 4.5 h; library: site-saturation at positions 5, 18, 19, 20
Respond with Condition met for shrunken log2 fold change values of -0.1 and above, Condition not met for values below.

Biopolymer Sequence	Assigned Class
RRIRKRPPRLPRPRPRPTMDPRP	Condition met
RRIRFRPPRLPRPRPRPNCDPRP	Condition not met
RRIRHRPPRLPRPRPRPIWAPRP	Condition met
RRIRHRPPRLPRPRPRPAMRPRP	Condition met
RRIRQRPPRLPRPRPRPPCCPRP	Condition met

q: Check this sequence for shrunken log2 fold change at or above -0.1: `RRIRDRPPRLPRPRPRPHEDPRP`
a: Condition met

q: Check this sequence for shrunken log2 fold change at or above -0.1: `RRIRARPPRLPRPRPRPYQNPRP`
a: Condition not met

q: Check this sequence for shrunken log2 fold change at or above -0.1: `RRIRIRPPRLPRPRPRPWSFPRP`
a: Condition met

q: Check this sequence for shrunken log2 fold change at or above -0.1: `RRIRSRPPRLPRPRPRPGMLPRP`
a: Condition met

q: Check this sequence for shrunken log2 fold change at or above -0.1: `RRIRCRPPRLPRPRPRPCGWPRP`
a: Condition met

---

System: Escherichia coli TOP10
Method Notes: shrunken log2 fold change of peptide-encoding DNA abundance (4.5 h post-induction vs induction); higher = less antimicrobial activity (less host growth inhibition)
Conditions Used: time post-induction: 4.5 h; library: site-saturation at positions 5, 18, 19, 20
Parameter: shrunken log2 fold change
Number only, please.

Recorded results for 4 sequences are shown here.
Biopolymer Sequence	Measured On	Parameter	Quantitative Readout
RRIRPRPPRLPRPRPRPELMPRP	Escherichia coli TOP10	shrunken log2 fold change	-0.109
RRIRNRPPRLPRPRPRPTETPRP	Escherichia coli TOP10	shrunken log2 fold change	-0.00947
RRIRMRPPRLPRPRPRPWLVPRP	Escherichia coli TOP10	shrunken log2 fold change	0.0862
RRIRSRPPRLPRPRPRPCIGPRP	Escherichia coli TOP10	shrunken log2 fold change	-0.18

Looking up `RRIRWRPPRLPRPRPRPDGCPRP` , I see its shrunken log2 fold change listed as 0.0109

Looking up `RRIRFRPPRLPRPRPRPKKPPRP` , I see its shrunken log2 fold change listed as -0.0169

Looking up `RRIRRRPPRLPRPRPRPHYKPRP` , I see its shrunken log2 fold change listed as -0.487

Looking up `RRIRDRPPRLPRPRPRPINTPRP` , I see its shrunken log2 fold change listed as -0.115

---

System: Escherichia coli TOP10
Method Notes: shrunken log2 fold change of peptide-encoding DNA abundance (4.5 h post-induction vs induction); higher = less antimicrobial activity (less host growth inhibition)
Conditions Used: time post-induction: 4.5 h; library: site-saturation at positions 5, 18, 19, 20
Parameter: shrunken log2 fold change
Number only, please.

Recorded results for 7 sequences are shown here.
Biopolymer Sequence	Quantitative Readout
RRIRWRPPRLPRPRPRPETEPRP	0.411
RRIRRRPPRLPRPRPRPCYDPRP	-0.194
RRIRHRPPRLPRPRPRPFIDPRP	-0.121
RRIRIRPPRLPRPRPRPVQHPRP	-0.38
RRIRRRPPRLPRPRPRPMAVPRP	-0.165
RRIRYRPPRLPRPRPRPNCCPRP	-0.518
RRIRQRPPRLPRPRPRPCILPRP	-0.458

Now take the following sequence into account.
Looking up `RRIRPRPPRLPRPRPRPCNWPRP` , I see its shrunken log2 fold change listed as -0.0706

---

Documented shrunken log2 fold change across a set of sequences
System: Escherichia coli TOP10
Method Notes: shrunken log2 fold change of peptide-encoding DNA abundance (4.5 h post-induction vs induction); higher = less antimicrobial activity (less host growth inhibition)
Conditions Used: time post-induction: 4.5 h; library: site-saturation at positions 5, 18, 19, 20
Number only, please.

Biopolymer Sequence	Measured On	Quantitative Readout
RRIRKRPPRLPRPRPRPYAVPRP	Escherichia coli TOP10	0.916
RRIRERPPRLPRPRPRPPGIPRP	Escherichia coli TOP10	-0.0106
RRIRERPPRLPRPRPRPHPTPRP	Escherichia coli TOP10	0.0575
RRIRKRPPRLPRPRPRPLKKPRP	Escherichia coli TOP10	0.0649
RRIRWRPPRLPRPRPRPEATPRP	Escherichia coli TOP10	1.44

Looking up `RRIRWRPPRLPRPRPRPHVPPRP` , I see its shrunken log2 fold change listed as -0.161

Looking up `RRIRDRPPRLPRPRPRPVQVPRP` , I see its shrunken log2 fold change listed as 0.011

Looking up `RRIRCRPPRLPRPRPRPYQWPRP` , I see its shrunken log2 fold change listed as -0.714

---

Documented shrunken log2 fold change across a set of sequences
Test system: Escherichia coli TOP10
Method Notes: shrunken log2 fold change of peptide-encoding DNA abundance (4.5 h post-induction vs induction); higher = less antimicrobial activity (less host growth inhibition)
Conditions Used: time post-induction: 4.5 h; library: site-saturation at positions 5, 18, 19, 20

Biopolymer Sequence	shrunken log2 fold change
RRIRMRPPRLPRPRPRPPHQPRP	0.634
RRIRVRPPRLPRPRPRPIFSPRP	-0.628
RRIRPRPPRLPRPRPRPMFRPRP	-0.119

Looking up `RRIRGRPPRLPRPRPRPNLPPRP` , I see its shrunken log2 fold change listed as 0.133

Looking up `RRIRRRPPRLPRPRPRPACMPRP` , I see its shrunken log2 fold change listed as 0.479

Looking up `RRIRTRPPRLPRPRPRPIYWPRP` , I see its shrunken log2 fold change listed as -0.157

---

Test system: Escherichia coli TOP10
Method Notes: shrunken log2 fold change of peptide-encoding DNA abundance (4.5 h post-induction vs induction); higher = less antimicrobial activity (less host growth inhibition)
Conditions Used: time post-induction: 4.5 h; library: site-saturation at positions 5, 18, 19, 20
Could you please classify the records by shrunken log2 fold change using these ranges: group A (below -0.09), group B (-0.09 to below 0.07), group C (0.07 or more)

See these solved cases before continuing.
Biopolymer Sequence	Assigned Class
RRIRLRPPRLPRPRPRPELMPRP	group B
RRIRERPPRLPRPRPRPCYFPRP	group A
RRIRVRPPRLPRPRPRPWYCPRP	group A
RRIRSRPPRLPRPRPRPLRCPRP	group C

q: Which category fits this record: `RRIRFRPPRLPRPRPRPYQPPRP`
a: group A

q: Which category fits this record: `RRIRDRPPRLPRPRPRPVYHPRP`
a: group B

q: Which category fits this record: `RRIRWRPPRLPRPRPRPQESPRP`
a: group B

q: Which category fits this record: `RRIRIRPPRLPRPRPRPYVPPRP`
a: group A

q: Which category fits this record: `RRIRIRPPRLPRPRPRPHNAPRP`
a: group A

---

Tested on: Escherichia coli TOP10;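 note: peptides expressed intracellularly from a pBAD plasmid library in pooled LB shake-flask culture, induced with 0.3% L-arabinose, DNA abundance read by NGS, three biological replicates, DESeq2 with apeglm shrinkage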
Method Notes: shrunken log2 fold change of peptide-encoding DNA abundance (4.5 h post-induction vs induction); higher = less antimicrobial activity (less host growth inhibition)
Conditions Used: time post-induction: 4.5 h; library: site-saturation at positions 5, 18, 19, 20
Documented shrunken log2 fold change across a set of sequences
Number only, please.

Looking up `RRIRHRPPRLPRPRPRPHDTPRP` , I see its shrunken log2 fold change listed as -1.08

Looking up `RRIRRRPPRLPRPRPRPVIRPRP` , I see its shrunken log2 fold change listed as 0.1

Looking up `RRIRLRPPRLPRPRPRPHLRPRP` , I see its shrunken log2 fold change listed as -0.151

Looking up `RRIRERPPRLPRPRPRPVDMPRP` , I see its shrunken log2 fold change listed as -0.107

Looking up `RRIRARPPRLPRPRPRPLRIPRP` , I see its shrunken log2 fold change listed as 2.9

Looking up `RRIRIRPPRLPRPRPRPSAFPRP` , I see its shrunken log2 fold change listed as -0.15

Looking up `RRIRLRPPRLPRPRPRPGPPPRP` , I see its shrunken log2 fold change listed as 0.445

Looking up `RRIRARPPRLPRPRPRPEPKPRP` , I see its shrunken log2 fold change listed as 1.36
